Test system: OVCAR8
EXPERIMENT SUMMARY: drug sensitivity score (DSS) from 5-point dose-response viability curve (DSS (area-under-curve based score)); higher = more sensitive (stronger growth inhibition or killing); extreme values may be limits of the assay
SETUP CONDITIONS: exposure time: 72 h; concentration range: 5 concentrations over 10,000-fold range
VALUE TYPE: drug sensitivity score
Answer with a number only.

Field: example entries. Status: answers known.
| MOLECULE | ASSAYED SYSTEM | drug sensitivity score |
| --- | --- | --- |
| COc1cc(C)c(/C=C/C(C)=C/C=C/C(C)=C/C(=O)O)c(C)c1C | OVCAR8 | 0 |
| Cc1nc(Nc2n[nH]c3c2CN(C(=O)N[C@H](CN(C)C)c2ccccc2)C3(C)C)c2sccc2n1 | OVCAR8 | 16.5 |
| Cc1sc2c(c1C)C(c1ccc(Cl)cc1)=N[C@@H](CC(=O)Nc1ccc(OCCOCCOCCOCCNc3cccc4c3C(=O)N(C3CCC(=O)NC3=O)C4=O)cc1)c1nnc(C)n1-2 (stereo partly drawn) | OVCAR8 | 15.5 |

Data request: Return reported drug sensitivity score. Input molecule: `Cc1cc(OCc2nnc(SC3CCCC3)n2-c2cccnc2)ccc1-c1ccc(S(C)(=O)=O)cc1`
Data returned: 19.9

Data request: Return reported drug sensitivity score. Input molecule: `CC(C)C[C@H](NC(=O)[C@@H](COC(C)(C)C)NC(=O)[C@H](Cc1ccc(O)cc1)NC(=O)[C@H](CO)NC(=O)[C@H](Cc1c[nH]c2ccccc12)NC(=O)[C@H](Cc1cnc[nH]1)NC(=O)[C@@H]1CCC(=O)N1)C(=O)N[C@@H](CCCNC(=N)N)C(=O)N1CCC[C@H]1C(=O)NNC(N)=O`
Data returned: 0

Data request: Return reported drug sensitivity score. Input molecule: `CNc1nc(Nc2cn(C(C)(C)C#N)nc2C)ncc1C(F)(F)F`
Data returned: 0

Data request: Return reported drug sensitivity score. Input molecule: `CC1(C)CC[C@]2(NC(=O)C(C)(F)F)CC[C@]3(C)[C@H](C(=O)C=C4[C@@]5(C)C=C(C#N)C(=O)C(C)(C)[C@@H]5CC[C@]43C)[C@@H]2C1`
Data returned: 18.9

Data request: Return reported drug sensitivity score. Input molecule: `O=C(Nc1ccc2[nH]nc(-c3ccncc3)c2c1)[C@@H]1CCN(CC(=O)N2CCN(c3ccc(-c4ncccn4)cc3)CC2)C1`
Data returned: 6.7

Data request: Return reported drug sensitivity score. Input molecule: `COc1cccc2c1c(O)c(C(=O)N(C)c1ccc(C(F)(F)F)cc1)c(=O)n2C`
Data returned: 0

Data request: Return reported drug sensitivity score. Input molecule: `CN(C)C(=O)c1ccc(S(=O)(=O)c2ccc(NC(=O)[C@@](C)(O)C(F)(F)F)c(Cl)c2)cc1`
Data returned: 2.2
